The entries below are paired with their reported mass density.
Conditions: 298.15 K; 101.33 kPa; Liquid; Vibrating tube method
Field format: number, assumed kg/m3, no unit text.

QUERY: Consider the molecule Cc1ccc(C)cc1 [1,4-dimethylbenzene] and give its measured mass density.
RESULT: 856.71

Others:
QUERY: Consider the molecule Cc1cccc(C)c1 [1,3-dimethylbenzene] and give its measured mass density.
RESULT: 859.95

QUERY: Consider the molecule Cc1ccccc1C [1,2-dimethylbenzene] and give its measured mass density.
RESULT: 859.54

QUERY: Consider the molecule CCCCCCCC [octane] and give its measured mass density.
RESULT: 698.61

* * *

Assay: refractive index (Na D-line) (dimensionless)
Conditions: 298.15 K; 101.33 kPa; Liquid; Standard Abbe refractometry
Quantity measured: refractive index
API doc: respond with a numeric literal and nothing else, no unit.

Example entries and their recorded answers appear below.
QUERY: Consider the compound Cc1ccccc1C and give its measured refractive index.
RESULT: 1.49466

QUERY: Consider the compound Cc1cccc(C)c1 and give its measured refractive index.
RESULT: 1.49464

QUERY: Consider the compound Cc1ccc(C)cc1 and give its measured refractive index.
RESULT: 1.4958

Others:
QUERY: Consider the compound CCCCCCCC and give its measured refractive index.
RESULT: 1.3951
